meta.source: the RNAGym collection of RNA variant scans (doi:10.1126/science.aae0568)

yeast fitness: recorded values
B1: tRNA (parent)
chain: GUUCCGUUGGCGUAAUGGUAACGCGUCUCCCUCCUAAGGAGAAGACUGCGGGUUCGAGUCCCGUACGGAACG

variants of: B1; experiment: yeast fitness relative to wild type (ratio to wild type); higher = fitter; tRNA-Arg(CCU), competitive growth, 37 C, YPD
This sample holds only a part of the variants without activity.

Exam item: For GUUCCCUUGGCGUAACGGUAACGCGUCUCCCUCCUAAGGACAAGACUGCGAGUUUGAGUCCCGUACGGAACG [G6C U16C G41C G51A C55U] , what is its reported yeast fitness?
Marked response: ≤ 0.5

Exam item: Which yeast fitness value belongs to GUUCCGUUGGCGUAAUGCUAAGGCGUCUCCUUCCUAAGGAGAAGACUGCGGGUUCGAGACCCAUACGGAACG [G18C C22G C31U U59A G63A] ?
Marked response: ≤ 0.5

Exam item: Record request: yeast fitness value, item GUUCCGUUGGCAUUAUGGUAUCGCGUCUCCCGCCUAGGGAGAAGGCUGCGGGUUAGAGUCCCGUACGGAACG [G12A A14U A21U U32G A37G A45G C55A]
Marked response: ≤ 0.5

Exam item: // returns reported yeast fitness for input GUUCUGUUGGCGUAAUGGUAACGCGUCUCCCUCCUAAGGAGAAGACUGCGGGUUCGAGUCACGUACGAAACG [C5U C61A G68A]
Marked response: ≤ 0.5

Exam item: Fill blank: measured yeast fitness of the variant GUUCCGUUGGCGUAAUGGGAACGCGUCUACCUCCUAAGGAGAAGUCUGCGGGUUCGAGUCCCGUACGGAACG [U19G C29A A45U] is ____.
Marked response: ≤ 0.5

Exam item: Please give the measured yeast fitness for this variant: GUUCCGUUGGCGUAAUGGUAACGCGUCACCCUCCUAAGGAGGAGACUGCGGGUUAGAGUCCCGUAAGGAACG [U28A A42G C55A C66A]
Marked response: ≤ 0.5

Exam item: I have this variant here, GUUCCGUUGGCGUAAUGGUAACGCGUCUCCCUCCCAAGGAGCAGACUGCAGGUUCGAGUCCCGUACGGAACG [U35C A42C G50A] , and I need its recorded yeast fitness.
Marked response: ≤ 0.5

Exam item: Could you tell me which yeast fitness is on file for GUUCCGUUGGUGUAAUGGUACCGCGUCUCCCUCCUAAGGAGAGGACUGCGGGUUCGAGUCCCGUACGGAACG [C11U A21C A43G] ?
Marked response: ≤ 0.5

Exam item: What does the data say about its yeast fitness? Entry: GUUCCGUUGGCCUAAUGGUAAUGCGUCUCCAUCCUAAGGAGAAGACUGCGGGUUCGAGUGCCGUACGGAACG [G12C C22U C31A C60G]
Marked response: ≤ 0.5

Exam item: For the variant GUUCCGAUGGCGUAAUGGUAACGCGUCUCUCUCCUAAGGAGAAGAUUGCGGGUUGGAGUCCCGUACGGAACG [U7A C30U C46U C55G] , what yeast fitness is on record?
Marked response: ≤ 0.5
